# assay-system: 5-hydroxytryptamine receptor 2A (Homo sapiens)
# Sequence (P28223 whole entry): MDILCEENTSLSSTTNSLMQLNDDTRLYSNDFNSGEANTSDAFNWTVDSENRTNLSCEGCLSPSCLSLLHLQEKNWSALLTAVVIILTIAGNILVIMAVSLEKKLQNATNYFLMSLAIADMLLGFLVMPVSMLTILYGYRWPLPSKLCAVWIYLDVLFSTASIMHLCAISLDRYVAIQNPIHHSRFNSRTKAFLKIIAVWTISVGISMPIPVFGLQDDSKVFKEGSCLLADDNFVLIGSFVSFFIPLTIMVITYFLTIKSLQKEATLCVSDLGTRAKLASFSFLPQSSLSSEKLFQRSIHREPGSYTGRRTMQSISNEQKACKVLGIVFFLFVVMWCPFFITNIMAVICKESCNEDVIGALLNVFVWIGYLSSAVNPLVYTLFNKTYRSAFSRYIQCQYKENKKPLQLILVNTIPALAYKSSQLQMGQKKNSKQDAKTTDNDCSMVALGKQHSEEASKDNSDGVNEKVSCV
# measurement-protocol: Inhibition of human 5-HT2A by intracellular Ca2+ luminescence assay
pIC50: −log10 of the molar value.
endpoint-name: pIC50

Memo: CCNC(=O)C[C@@H]1N=C(c2ccc(Cl)cc2)c2cc(OC)ccc2-n2c(C)nnc21 , reported pIC50: < 4.40

###

# assay-system: Vasopressin V1a receptor (Homo sapiens)
# Sequence (P37288 whole entry): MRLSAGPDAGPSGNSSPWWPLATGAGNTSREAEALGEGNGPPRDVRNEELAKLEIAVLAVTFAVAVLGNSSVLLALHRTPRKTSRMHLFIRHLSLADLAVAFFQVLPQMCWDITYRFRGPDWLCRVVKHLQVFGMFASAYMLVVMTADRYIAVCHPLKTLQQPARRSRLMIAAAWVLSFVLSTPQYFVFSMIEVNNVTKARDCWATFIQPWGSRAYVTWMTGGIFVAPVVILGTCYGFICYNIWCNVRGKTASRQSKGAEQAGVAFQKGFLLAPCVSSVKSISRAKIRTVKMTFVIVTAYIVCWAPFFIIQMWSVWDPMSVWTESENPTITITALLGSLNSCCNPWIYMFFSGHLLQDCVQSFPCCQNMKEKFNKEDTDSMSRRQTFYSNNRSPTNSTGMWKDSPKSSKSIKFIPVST
# measurement-protocol: Inhibition of human V1a by intracellular Ca2+ fluorescence assay
endpoint-name: IC50

Entry CCNC(=O)C[C@@H]1N=C(c2ccc(Cl)cc2)c2cc(OC)ccc2-n2c(C)nnc21 : IC50 on Vasopressin V1a receptor (Homo sapiens) = > 50 µM
